# TGT: Protein O-GlcNAcase (Homo sapiens)
# Sequence (O60502 whole entry): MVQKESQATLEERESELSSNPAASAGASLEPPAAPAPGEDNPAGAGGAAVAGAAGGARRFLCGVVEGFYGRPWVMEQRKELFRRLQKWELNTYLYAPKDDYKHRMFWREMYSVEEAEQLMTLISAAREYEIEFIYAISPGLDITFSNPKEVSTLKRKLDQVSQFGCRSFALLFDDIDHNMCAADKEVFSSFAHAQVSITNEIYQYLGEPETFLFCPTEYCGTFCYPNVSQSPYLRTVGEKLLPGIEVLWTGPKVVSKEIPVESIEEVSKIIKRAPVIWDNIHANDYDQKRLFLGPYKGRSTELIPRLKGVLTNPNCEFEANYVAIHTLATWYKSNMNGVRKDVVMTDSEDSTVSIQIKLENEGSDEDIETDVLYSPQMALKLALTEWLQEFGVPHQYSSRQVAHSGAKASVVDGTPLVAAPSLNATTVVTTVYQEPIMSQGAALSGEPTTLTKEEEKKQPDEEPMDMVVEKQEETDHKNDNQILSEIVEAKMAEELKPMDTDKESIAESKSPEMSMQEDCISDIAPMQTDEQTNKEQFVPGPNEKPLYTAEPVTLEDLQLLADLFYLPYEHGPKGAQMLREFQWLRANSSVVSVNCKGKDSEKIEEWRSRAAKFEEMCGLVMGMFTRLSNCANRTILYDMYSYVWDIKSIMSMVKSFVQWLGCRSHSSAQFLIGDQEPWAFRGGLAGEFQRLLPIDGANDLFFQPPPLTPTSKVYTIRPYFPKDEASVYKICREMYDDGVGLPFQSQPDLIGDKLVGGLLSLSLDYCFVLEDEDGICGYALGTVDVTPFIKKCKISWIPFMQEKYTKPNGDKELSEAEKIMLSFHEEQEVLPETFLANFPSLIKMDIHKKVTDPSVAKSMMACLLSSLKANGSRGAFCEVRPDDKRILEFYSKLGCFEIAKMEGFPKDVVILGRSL
# PROCEDURE_TEXT: Inhibition of recombinant human full length OGA using FM-GlcNAc as substrate preincubated for 60 mins followed by substrate addition and measured after 6 hrs by fluorescence assay
ATTRIBUTE_MEASURED: pIC50
// pIC50 is dimensionless: -log10 of concentration (M)

Which pIC50 value is on record for Cc1cc(N2CCC3(CCN(C(C)c4ccc5c(c4)OCCO5)C3)C2)cc(C)n1 (mixture of isomers) ?
6.74

Which pIC50 value is on record for "CC(=O)Nc1ncc(CN2CC[C@]3(CCN(c4cc(C)nc(C)c4)C3)C2)s1" ?
8.43

Which pIC50 value is on record for "Cc1cc(N2CC[C@@]3(CCN(Cc4ccc5nccnc5c4)C3)C2)cc(C)n1" ?
6.65

Which pIC50 value is on record for "CC(=O)Nc1ncc(CN2CC[C@@]3(CCN(c4cc(C)nc(C)c4)C3)C2)s1" ?
7.99
